# Test system: ragweed (common ragweed, Ambrosia elatior)
# Experiment summary: Test C preemergence
# Type: in vivo
# Test settings: 62 g ai/ha, scale 0 to 100, 0 no effect, 100 complete control
This section presents compounds with their documented Plant response rating, Ragweed values.

- Compound: "CC(C)Oc1cccc(C2CN(C)C(=O)C2C(=O)Nc2cccc(F)c2F)c1 (centres unmarked) [Compound 651]"
  Plant response rating, Ragweed: 25
- Compound: "CN1CC(c2ccc(F)c(C(F)(F)F)c2)C(C(=O)Nc2ccccc2S(C)(=O)=O)C1=O (centres unmarked) [Compound 612]"
  Plant response rating, Ragweed: 10

Task: Consider the compound shown here: CN1CC(c2ccc(C(F)(F)F)c(F)c2)C(C(=O)Nc2cccc(F)c2F)C1=O (centres unmarked) [Compound 396] What is its recorded Plant response rating, Ragweed?
Result: 80

Task: Consider the compound shown here: CN1CC(c2ccc(C(F)(F)F)c(F)c2)C(C(=O)Nc2ccccc2F)C1=O (centres unmarked) [Compound 399] What is its recorded Plant response rating, Ragweed?
Result: 50

Task: Consider the compound shown here: CN1CC(c2cccc(OC(F)F)c2)C(C(=O)Nc2ccc(F)cc2F)C1=O (centres unmarked) [Compound 617] What is its recorded Plant response rating, Ragweed?
Result: 10
